- assay: qHTS assay for cell viability of the p53RE-bla HCT-116 cell line (AID 743292); also: nearly all actives have a fitted effect of over 55% in size; also: potency is read from the fitted curve at half-maximal effect
- experimental_parameters: p53RE-bla HCT-116 viability, ATP luminescence, 16 h; series mostly up to 95 µM
Results filed as inconclusive are left out. The source made the active and inactive calls. Calls follow the shape of the dose curve; as a rule, active = well fitted cell-killing curve with a large enough effect; inconclusive = small, poorly fitted or top-dose-only effect, or effect the other way; inactive = flat fitted curve, though single readings scatter.
observed_property: Potency

Examples with their reported Potency follow.
O=Cc1ccc(Cl)c(Cl)c1
inactive
CC1CCC(C(C)C)C(O)C1 (configuration not stated)
inactive
O=[N+]([O-])c1cc([N+](=O)[O-])c2ccc(S(=O)(=O)O)cc2c1O
inactive
CCCCCCCC[N+](CCCCCCCC)(CCCCCCCC)CCCCCCCC
44.7 µM (active)
C/C=C1\C(=O)C[C@H]2[C@@H]3CCC4=CC(=O)CC[C@]4(C)[C@H]3CC[C@]12C
inactive

Quick batch: Potency for everything below.
1. CO[C@H]1/C=C/O[C@@]2(C)Oc3c(C)c(O)c4c(O)c(c5c(c4c3C2=O)NC2(CCN(CC(C)C)CC2)N=5)=NC(=O)/C(C)=C\C=C\[C@H](C)[C@H](O)[C@@H](C)[C@@H](O)[C@@H](C)[C@H](OC(C)=O)[C@@H]1C
2. C=CC(=O)OCCOCCOC(=O)C=C
3. CN1[C@H]2CC(OC(=O)[C@H](CO)c3ccccc3)C[C@H]1[C@H]1O[C@H]12 (some centres not stated)
4. O=C1OC2(c3cc(Br)c(O)c(Br)c3Oc3c2cc(Br)c(O)c3Br)c2c(Cl)c(Cl)c(Cl)c(Cl)c21
5. O=C=Nc1ccc(Cc2ccc(N=C=O)cc2)cc1
6. O=c1oc2cc(O)ccc2c2oc3cc(O)ccc3c12
7. c1ccc2c(c1)-c1cccc3c1c-2cc1ccccc13

1. inactive
2. inactive
3. inactive
4. 39.8 µM (active)
5. inactive
6. inactive
7. inactive
